type: physicochemical; conditions: Hexane, 298.15 K
outcome_measure: ΔGsol0, standard molar dissolution Gibbs energy (kcal/mol)

Some entries whose results are on file:
COc1ccc2c(c1)c1c(n2CCc2n[nH]c(=S)n2C)CCN(C)C1 ... 6.05
CN1CCc2c(c3cc(Cl)ccc3n2CCc2n[nH]c(=S)n2C)C1 ... 4.35

a. CN1CCc2c(c3cc(F)ccc3n2CCc2n[nH]c(=S)n2C)C1
b. CN1CCc2c(c3ccccc3n2CCc2n[nH]c(=S)n2C)C1
Ask | Endpoint returns whichever of a and b has the numerically higher ΔGsol0, standard molar dissolution Gibbs energy. I would appreciate it if you answered with the label of your choice.
Reply | b
(b: 6.84 kcal/mol, a: 4.57 kcal/mol)
